Value source: paper PMC4072508

Entries and their measured SPOT signal as a fraction of Bim BH3's signal on the same receptor and array follow.
Target: T1, Mcl-1, Q07820
T1 chain: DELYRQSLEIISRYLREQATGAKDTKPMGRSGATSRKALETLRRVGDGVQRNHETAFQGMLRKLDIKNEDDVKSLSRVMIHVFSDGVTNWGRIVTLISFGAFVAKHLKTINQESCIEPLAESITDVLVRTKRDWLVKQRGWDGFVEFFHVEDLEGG
Assay: peptide SPOT array, c-Myc-tagged receptor at 1 uM or 100 nM, anti-c-Myc-Cy3
Reply briefly: the number, and no unit.

Worked cases, answers included:
Binder	Experimental Value
CVSDQELGLLIKEVADALGGGADPET [KCNK4]	0.01
NATHEEVVHLLRNAGDEVTITVEYLR [SNTG2]	0.09
HQAEVQIARKLQCIADQFHRLHVQQH [BMF]	0.48

Exercise: Return reported SPOT signal as a fraction of Bim BH3's signal on the same receptor and array; argument: PALLVHWAKCDQKMGRGLNSSYDQQE [RGPD2]
Key: 0.41

Exercise: Return reported SPOT signal as a fraction of Bim BH3's signal on the same receptor and array; argument: LNLLMISVAFLRVILDQLEKLCDSLL [SLC38A8]
Key: 0.04

Exercise: Return reported SPOT signal as a fraction of Bim BH3's signal on the same receptor and array; argument: MAADTQVSETLKRFAGKVTTASVKER [GCN1L1]
Key: 0.11

Exercise: Return reported SPOT signal as a fraction of Bim BH3's signal on the same receptor and array; argument: LEMVSGSIQVLKHMSGRVGEELDEQG [STX10]
Key: 0.02
